Hey, just so you know, these numbers are from the kinase profiling compilation of Christmann-Franck et al. (2016).

Each entry below carries its reported kinase still bound, per cent of control.
Biological target: PRPF4B (human) (UniProt Q13523)
Sequence (Q13523 whole entry, looked up): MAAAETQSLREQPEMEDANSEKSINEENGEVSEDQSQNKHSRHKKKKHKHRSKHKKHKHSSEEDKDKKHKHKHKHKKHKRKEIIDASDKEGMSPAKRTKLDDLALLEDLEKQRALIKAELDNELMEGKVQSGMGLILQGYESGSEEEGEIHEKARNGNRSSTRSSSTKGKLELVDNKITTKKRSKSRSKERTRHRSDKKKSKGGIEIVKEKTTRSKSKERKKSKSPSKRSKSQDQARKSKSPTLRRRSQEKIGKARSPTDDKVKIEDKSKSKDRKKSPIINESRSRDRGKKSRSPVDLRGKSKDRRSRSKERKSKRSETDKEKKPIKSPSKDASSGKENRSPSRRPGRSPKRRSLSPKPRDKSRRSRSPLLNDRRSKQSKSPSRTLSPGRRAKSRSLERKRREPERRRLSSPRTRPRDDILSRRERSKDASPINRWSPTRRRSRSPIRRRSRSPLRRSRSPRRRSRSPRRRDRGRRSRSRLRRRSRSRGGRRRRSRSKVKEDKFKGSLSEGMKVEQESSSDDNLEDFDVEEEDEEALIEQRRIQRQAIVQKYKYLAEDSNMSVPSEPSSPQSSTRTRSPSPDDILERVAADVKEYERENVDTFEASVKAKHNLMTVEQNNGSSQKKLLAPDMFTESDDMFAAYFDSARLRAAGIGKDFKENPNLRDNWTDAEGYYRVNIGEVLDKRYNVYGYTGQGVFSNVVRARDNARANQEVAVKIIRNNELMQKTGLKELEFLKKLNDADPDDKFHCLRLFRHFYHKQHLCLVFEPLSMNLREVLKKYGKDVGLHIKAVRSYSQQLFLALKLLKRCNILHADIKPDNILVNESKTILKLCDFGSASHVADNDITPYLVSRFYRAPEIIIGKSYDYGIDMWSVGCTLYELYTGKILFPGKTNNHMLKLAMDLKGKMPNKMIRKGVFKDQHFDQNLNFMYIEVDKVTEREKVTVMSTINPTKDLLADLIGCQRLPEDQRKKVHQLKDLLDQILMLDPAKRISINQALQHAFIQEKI
Assay: KINOMEscan competition binding
Conditions: compound 10.0 µM
Unit % implied. Number only.

• CNC(=O)c1cc(Oc2ccc(NC(=O)Nc3ccc(Cl)c(C(F)(F)F)c3)cc2)ccn1 = 100
• COCC(=O)NC/C=C/c1ccc2ncnc(Nc3ccc(Oc4ccc(C)nc4)c(C)c3)c2c1 = 93
• COc1cc2ncnc(-n3nc(-c4ccccn4)nc3N)c2cc1OC = 93
• O=c1cc(N2CCOCC2)oc2c(-c3cccc4c3sc3ccccc34)cccc12 = 78
• COc1cc(N2CCN(C)CC2)ccc1Nc1ncc2c(n1)N(C)c1ccccc1C(=O)N2C = 100

kinase still bound, per cent of control measured on "CCN(CC)CCCCNc1ncc2c(n1)N(C)C(=O)N(c1c(Cl)c(OC)cc(OC)c1Cl)C2" = 100

kinase still bound, per cent of control measured on "COc1ccc(N(C(=O)Oc2c(C)cccc2C)c2ccnc(Nc3ccc(N4CCN(C)CC4)cc3)n2)c(OC)c1" = 55

kinase still bound, per cent of control measured on "CN(C)C/C=C/C(=O)Nc1ccc(C(=O)Nc2cccc(Nc3nccc(-c4cccnc4)n3)c2)cc1" = 100

kinase still bound, per cent of control measured on "CCN1CCN(C(=O)Cc2ccc(Nc3ncc(F)c(Nc4ccc(C(=O)Nc5ccccc5Cl)cc4)n3)cc2)CC1" = 18

kinase still bound, per cent of control measured on "CS(=O)(=O)N1CCN(Cc2cc3nc(-c4cccc5[nH]ncc45)nc(N4CCOCC4)c3s2)CC1" = 100

kinase still bound, per cent of control measured on "C=CC(=O)Nc1cc(-n2c(=O)ccc3cnc4ccc(-c5cn[nH]c5)cc4c32)ccc1C" = 84

kinase still bound, per cent of control measured on "N#CCNC(=O)c1ccc(-c2ccnc(Nc3ccc(N4CCOCC4)cc3)n2)cc1" = 8

kinase still bound, per cent of control measured on "COc1cc(C(=O)N2CCC(N3CCN(C)CC3)CC2)ccc1Nc1ncc2c(n1)N(C)c1ccccc1C(=O)N2C" = 93

kinase still bound, per cent of control measured on "O=C(Nc1cccc(Nc2ncc(Br)c(NCCc3cnc[nH]3)n2)c1)N1CCCC1" = 5.3

kinase still bound, per cent of control measured on "COc1cc2ncn(-c3cc(OCc4ccccc4C(F)(F)F)c(C(N)=O)s3)c2cc1OC" = 20

kinase still bound, per cent of control measured on "NC(=O)Nc1cc(-c2cccc(F)c2)sc1C(=O)N[C@@H]1CCCNC1" = 7.4

kinase still bound, per cent of control measured on "C[C@@H](Oc1cc(-c2cnn(C3CCNCC3)c2)cnc1N)c1c(Cl)ccc(F)c1Cl" = 48

kinase still bound, per cent of control measured on "O=C1NC(=O)/C(=C/c2ccc3nccc(-c4ccncc4)c3c2)S1" = 88

---

Biological target: STK11 (human) (UniProt Q15831)
Sequence (Q15831 whole entry, looked up): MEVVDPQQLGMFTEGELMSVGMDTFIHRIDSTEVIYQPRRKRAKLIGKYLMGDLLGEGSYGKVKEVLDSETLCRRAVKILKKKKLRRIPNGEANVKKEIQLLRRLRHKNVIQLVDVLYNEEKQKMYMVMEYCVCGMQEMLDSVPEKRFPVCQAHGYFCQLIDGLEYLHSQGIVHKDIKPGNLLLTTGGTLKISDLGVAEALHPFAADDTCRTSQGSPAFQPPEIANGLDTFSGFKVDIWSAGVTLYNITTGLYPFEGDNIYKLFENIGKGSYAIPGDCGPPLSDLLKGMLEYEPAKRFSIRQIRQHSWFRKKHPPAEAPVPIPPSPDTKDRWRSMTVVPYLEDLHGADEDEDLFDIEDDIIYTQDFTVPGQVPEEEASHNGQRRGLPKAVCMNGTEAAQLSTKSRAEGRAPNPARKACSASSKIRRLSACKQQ
Assay: KINOMEscan competition binding
Details: compound 10.0 µM
metric_name: kinase still bound, per cent of control (%)
Unit % implied. Number only.

- O=C1NC(=O)/C(=C/c2ccc3nccc(-c4ccncc4)c3c2)S1: 12
- NC(=O)Nc1cc(-c2cccc(F)c2)sc1C(=O)N[C@@H]1CCCNC1: 4.8
- O=c1cc(N2CCOCC2)oc2c(-c3cccc4c3sc3ccccc34)cccc12: 75

kinase still bound, per cent of control measured on "CCN(CC)CCCCNc1ncc2cc(-c3cc(OC)cc(OC)c3)c(NC(=O)NC(C)(C)C)nc2n1" = 100

kinase still bound, per cent of control measured on "CCN(CC)CCCCNc1ncc2c(n1)N(C)C(=O)N(c1c(Cl)c(OC)cc(OC)c1Cl)C2" = 100

kinase still bound, per cent of control measured on "COc1cc2ncn(-c3cc(OCc4ccccc4C(F)(F)F)c(C(N)=O)s3)c2cc1OC" = 37

kinase still bound, per cent of control measured on "CCN1CCN(C(=O)Cc2ccc(Nc3ncc(F)c(Nc4ccc(C(=O)Nc5ccccc5Cl)cc4)n3)cc2)CC1" = 12

kinase still bound, per cent of control measured on "COc1cc2ncnc(-n3nc(-c4ccccn4)nc3N)c2cc1OC" = 100

kinase still bound, per cent of control measured on "O=C(Nc1cccc(Nc2ncc(Br)c(NCCc3cnc[nH]3)n2)c1)N1CCCC1" = 3.2

---

Target: UniProt:Q8TDR2
Sequence (Q8TDR2 whole entry, looked up): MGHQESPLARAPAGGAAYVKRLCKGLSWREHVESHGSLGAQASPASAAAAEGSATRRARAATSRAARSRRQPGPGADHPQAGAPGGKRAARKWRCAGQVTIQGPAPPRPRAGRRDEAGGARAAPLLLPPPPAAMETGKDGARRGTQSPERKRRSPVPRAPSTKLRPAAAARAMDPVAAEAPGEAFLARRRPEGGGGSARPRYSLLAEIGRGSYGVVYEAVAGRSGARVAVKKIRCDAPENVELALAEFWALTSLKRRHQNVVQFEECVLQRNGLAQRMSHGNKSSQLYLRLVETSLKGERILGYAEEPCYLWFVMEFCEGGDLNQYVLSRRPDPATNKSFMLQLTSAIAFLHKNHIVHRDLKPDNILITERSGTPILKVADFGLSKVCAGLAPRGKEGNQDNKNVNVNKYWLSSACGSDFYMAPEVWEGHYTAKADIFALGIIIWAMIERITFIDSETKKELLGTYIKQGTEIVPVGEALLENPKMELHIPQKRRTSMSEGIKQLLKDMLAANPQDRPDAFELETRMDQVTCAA
Test: KINOMEscan competition binding
Conditions: compound 10.0 µM
Each entry below carries its reported kinase still bound, per cent of control.
Report as: number unit

• COc1cc2ncn(-c3cc(OCc4ccccc4C(F)(F)F)c(C(N)=O)s3)c2cc1OC = 56%

kinase still bound, per cent of control measured on "CS(=O)(=O)N1CCN(Cc2cc3nc(-c4cccc5[nH]ncc45)nc(N4CCOCC4)c3s2)CC1" = 100%

kinase still bound, per cent of control measured on "Cc1n[nH]c2ccc(-c3cncc(OC[C@@H](N)Cc4c[nH]c5ccccc45)c3)cc12" = 100%

kinase still bound, per cent of control measured on "CN(C)C/C=C/C(=O)Nc1ccc(C(=O)Nc2cccc(Nc3nccc(-c4cccnc4)n3)c2)cc1" = 80%

kinase still bound, per cent of control measured on "COc1cc(C(=O)N2CCC(N3CCN(C)CC3)CC2)ccc1Nc1ncc2c(n1)N(C)c1ccccc1C(=O)N2C" = 100%

kinase still bound, per cent of control measured on "COc1ccc(N(C(=O)Oc2c(C)cccc2C)c2ccnc(Nc3ccc(N4CCN(C)CC4)cc3)n2)c(OC)c1" = 24%

kinase still bound, per cent of control measured on "CNC(=O)c1ccc(Nc2cc(Nc3ccccc3S(=O)(=O)C(C)C)c3cc[nH]c3n2)nc1" = 12%

kinase still bound, per cent of control measured on "C=CC(=O)Nc1cc(-n2c(=O)ccc3cnc4ccc(-c5cn[nH]c5)cc4c32)ccc1C" = 98%

kinase still bound, per cent of control measured on "N#CCNC(=O)c1ccc(-c2ccnc(Nc3ccc(N4CCOCC4)cc3)n2)cc1" = 57%

kinase still bound, per cent of control measured on "COc1cc2ncnc(-n3nc(-c4ccccn4)nc3N)c2cc1OC" = 24%

kinase still bound, per cent of control measured on "O=C1NC(=O)/C(=C/c2ccc3nccc(-c4ccncc4)c3c2)S1" = 49%

kinase still bound, per cent of control measured on "O=c1cc(N2CCOCC2)oc2c(-c3cccc4c3sc3ccccc34)cccc12" = 80%

kinase still bound, per cent of control measured on "COc1cc(N2CCN(C)CC2)ccc1Nc1ncc2c(n1)N(C)c1ccccc1C(=O)N2C" = 100%

kinase still bound, per cent of control measured on "C=CC(=O)Nc1ccc(CN(C(=O)Nc2c(Cl)c(OC)cc(OC)c2Cl)c2cc(Nc3ccc(N4CCN(C)CC4)cc3)ncn2)cc1" = 100%

kinase still bound, per cent of control measured on "COCC(=O)NC/C=C/c1ccc2ncnc(Nc3ccc(Oc4ccc(C)nc4)c(C)c3)c2c1" = 65%

---

Each entry below carries its reported kinase still bound, per cent of control.
Biological target: PKN1 (human) (UniProt Q16512)
Sequence (Q16512 whole entry, looked up): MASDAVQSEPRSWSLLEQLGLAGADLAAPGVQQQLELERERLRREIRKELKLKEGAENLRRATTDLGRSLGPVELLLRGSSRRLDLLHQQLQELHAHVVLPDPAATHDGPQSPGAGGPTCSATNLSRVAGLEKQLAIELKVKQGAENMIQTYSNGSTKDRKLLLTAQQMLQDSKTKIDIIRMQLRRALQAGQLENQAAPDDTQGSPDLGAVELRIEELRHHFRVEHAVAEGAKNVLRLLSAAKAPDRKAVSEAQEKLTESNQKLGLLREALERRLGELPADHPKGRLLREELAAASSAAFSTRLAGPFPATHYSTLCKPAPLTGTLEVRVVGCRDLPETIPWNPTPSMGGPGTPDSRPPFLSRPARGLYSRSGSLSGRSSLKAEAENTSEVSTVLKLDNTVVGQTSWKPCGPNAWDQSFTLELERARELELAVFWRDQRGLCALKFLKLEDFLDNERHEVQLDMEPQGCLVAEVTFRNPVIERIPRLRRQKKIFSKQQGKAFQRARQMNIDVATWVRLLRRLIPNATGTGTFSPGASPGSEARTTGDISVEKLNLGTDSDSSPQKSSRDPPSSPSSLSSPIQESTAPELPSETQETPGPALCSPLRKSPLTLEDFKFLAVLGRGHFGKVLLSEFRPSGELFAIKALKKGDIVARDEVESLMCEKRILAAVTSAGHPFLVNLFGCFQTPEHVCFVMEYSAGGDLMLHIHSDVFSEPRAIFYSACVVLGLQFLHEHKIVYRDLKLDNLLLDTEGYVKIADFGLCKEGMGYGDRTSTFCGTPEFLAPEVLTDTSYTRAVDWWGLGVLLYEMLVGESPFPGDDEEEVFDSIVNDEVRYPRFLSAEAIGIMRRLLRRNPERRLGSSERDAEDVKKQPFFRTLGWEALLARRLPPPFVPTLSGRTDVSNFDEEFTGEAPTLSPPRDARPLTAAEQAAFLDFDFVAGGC
Assay: KINOMEscan competition binding
Conditions: compound 10.0 µM
Unit % implied. Number only.

* CNC(=O)c1cc(Oc2ccc(NC(=O)Nc3ccc(Cl)c(C(F)(F)F)c3)cc2)ccn1 | 99
* COc1cc2ncnc(-n3nc(-c4ccccn4)nc3N)c2cc1OC | 100

kinase still bound, per cent of control measured on "CNC(=O)c1ccc(Nc2cc(Nc3ccccc3S(=O)(=O)C(C)C)c3cc[nH]c3n2)nc1" = 0

kinase still bound, per cent of control measured on "C=CC(=O)Nc1ccc(CN(C(=O)Nc2c(Cl)c(OC)cc(OC)c2Cl)c2cc(Nc3ccc(N4CCN(C)CC4)cc3)ncn2)cc1" = 100

kinase still bound, per cent of control measured on "NC(=O)Nc1cc(-c2cccc(F)c2)sc1C(=O)N[C@@H]1CCCNC1" = 0

kinase still bound, per cent of control measured on "O=C(Nc1cccc(Nc2ncc(Br)c(NCCc3cnc[nH]3)n2)c1)N1CCCC1" = 0.3

kinase still bound, per cent of control measured on "CCN(CC)CCCCNc1ncc2c(n1)N(C)C(=O)N(c1c(Cl)c(OC)cc(OC)c1Cl)C2" = 100

kinase still bound, per cent of control measured on "C=CC(=O)Nc1cc(-n2c(=O)ccc3cnc4ccc(-c5cn[nH]c5)cc4c32)ccc1C" = 100

kinase still bound, per cent of control measured on "CS(=O)(=O)N1CCN(Cc2cc3nc(-c4cccc5[nH]ncc45)nc(N4CCOCC4)c3s2)CC1" = 100

kinase still bound, per cent of control measured on "COc1cc2ncn(-c3cc(OCc4ccccc4C(F)(F)F)c(C(N)=O)s3)c2cc1OC" = 76

kinase still bound, per cent of control measured on "COCC(=O)NC/C=C/c1ccc2ncnc(Nc3ccc(Oc4ccc(C)nc4)c(C)c3)c2c1" = 100

kinase still bound, per cent of control measured on "CCN(CC)CCCCNc1ncc2cc(-c3cc(OC)cc(OC)c3)c(NC(=O)NC(C)(C)C)nc2n1" = 100

kinase still bound, per cent of control measured on "CCN1CCN(C(=O)Cc2ccc(Nc3ncc(F)c(Nc4ccc(C(=O)Nc5ccccc5Cl)cc4)n3)cc2)CC1" = 56

kinase still bound, per cent of control measured on "C[C@@H](Oc1cc(-c2cnn(C3CCNCC3)c2)cnc1N)c1c(Cl)ccc(F)c1Cl" = 38

kinase still bound, per cent of control measured on "Cc1n[nH]c2ccc(-c3cncc(OC[C@@H](N)Cc4c[nH]c5ccccc45)c3)cc12" = 0

kinase still bound, per cent of control measured on "COc1cc(N2CCN(C)CC2)ccc1Nc1ncc2c(n1)N(C)c1ccccc1C(=O)N2C" = 100

kinase still bound, per cent of control measured on "COc1cc(C(=O)N2CCC(N3CCN(C)CC3)CC2)ccc1Nc1ncc2c(n1)N(C)c1ccccc1C(=O)N2C" = 100

kinase still bound, per cent of control measured on "N#CCNC(=O)c1ccc(-c2ccnc(Nc3ccc(N4CCOCC4)cc3)n2)cc1" = 66

kinase still bound, per cent of control measured on "O=C1NC(=O)/C(=C/c2ccc3nccc(-c4ccncc4)c3c2)S1" = 56
